assay: chemical genetic growth profiling, strain panel (AID 1159580);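 further: tested at 20 µM; growth read once vehicle control cultures reached saturation at 30 °C; 1 = growth at the plate median or of vehicle wells; lower values mean less growth of the strain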; settings: S. cerevisiae deletion strains, growth OD, locus YGR040W, strain KSS1, active compounds read low
The campaign covered roughly 5,500 compounds. About 2,000 (36%) were called active. About 18% were inconclusive and are not listed. The list shows a part of the results.
Could you mark each record true if its normalized growth falls strictly under 0.9, and false if it equals or exceeds it?

1) CC(=O)Nc1ccc(S(=O)(=O)Nc2ccccc2Oc2ccc(Cl)cc2Cl)cc1: false
2) O=[N+]([O-])c1ccc2oc(C(O)c3ccc(-c4ccccc4)cc3)cc2c1 (stereo not given): true
3) COC(=O)c1sccc1-c1ccc(/C=C/[N+](=O)[O-])o1: true
4) ClC1=C(C=Nc2ccc(Cl)cc2)CSc2ccc(Cl)cc21: true
5) CC(C)(C)c1ccc(C(=O)Nc2ccc(C(F)(F)F)cc2)s1: false
6) O=[N+]([O-])c1ccc2oc(C(O)c3cccc(Cl)c3)cc2c1 (stereo not given): false
7) Cc1ccc(NS(=O)(=O)c2ccc(Cl)cc2)c(N=Cc2cc(Cl)cc(Cl)c2O)c1: true
8) OC(CN1CCN(c2nc3ccc(Cl)cc3s2)CC1)Cn1ccc2ccccc21 (stereo not given): false
9) CCCCCCCCCCCC(=O)NOC(=O)c1c(-c2c(Cl)cccc2Cl)noc1C: true
10) CC(=O)ON=C1c2cc([N+](=O)[O-])ccc2-c2ccc([N+](=O)[O-])cc21: true

====

assay: chemical genetic growth profiling, strain panel (AID 1159580);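 further: tested at 20 µM; growth read once vehicle control cultures reached saturation at 30 °C; 1 = growth at the plate median or of vehicle wells; lower values mean less growth of the strain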; conditions: S. cerevisiae deletion strains, growth OD, locus YHR142W, strain chs7, active compounds read low
In all, about 5,500 compounds went through this assay and about 2,000 (36%) were called active. Roughly 18% stayed inconclusive and do not appear here. The list shows a part of the results.
MEASURED ENDPOINT: normalized growth

1. CC1(C)NC(=O)N(c2ccc([N+](=O)[O-])c(C(F)(F)F)c2)C1=O: 0.986 (inactive)
2. N[C@@H](CC(=O)N1CCn2c(nnc2C(F)(F)F)C1)Cc1cc(F)c(F)cc1F: 1.01 (inactive)
3. CC(C)C(=O)Nc1ccc([N+](=O)[O-])c(C(F)(F)F)c1: 1.03 (inactive)
4. O=C(O)CN1C(=O)c2cccc3cccc(c23)C1=O: 0.944 (inactive)

====

experiment: chemical genetic growth profiling, strain panel (AID 1159580);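 further: tested at 20 µM; growth read once vehicle control cultures reached saturation at 30 °C; 1 = growth at the plate median or of vehicle wells; lower values mean less growth of the strain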; details: S. cerevisiae deletion strains, growth OD, locus YJR066W, strain TOR1 (second series)
In all, about 5,500 compounds went through this assay and about 2,000 (36%) were called active. Another 18% or so got no clear call; they are omitted. Cut-off read from the data, not from the text of the source: active = normalized growth mostly below about 0.91 (no sharp cut-off); inconclusive = no clear call, values can overlap the other calls; inactive = mostly above about 0.92. The list shows a part of the results.
Outcomes: active, inactive

1) O=c1c2ccccc2[nH]c(=S)n1-c1cccc(C(F)(F)F)c1: inactive
2) N#CC(C#N)=Cc1ccc(-c2ccccc2C(F)(F)F)o1: inactive
3) CC1(C)OC(=O)C(=Cc2cccn2-c2ccc(C(F)(F)F)cc2)C(=O)O1: inactive
4) Cc1ccc(NNC(=O)c2c(C)noc2C)cc1Cl: inactive
5) O=[N+]([O-])c1ccc2oc(C(O)c3ccc(-c4ccccc4)cc3)cc2c1 (stereo unspecified): inactive
6) CC1(C)OC(=O)C(=Cc2cccn2-c2ccc(OC(F)(F)F)cc2)C(=O)O1: inactive
7) CC(C)(C)c1ccc(C(=O)NNc2c(Cl)cccc2Cl)cc1: inactive
8) ClC1=C(C=Nc2ccc(Cl)cc2)CSc2ccc(Cl)cc21: inactive
9) OC(CN1CCN(c2nc3ccc(Cl)cc3s2)CC1)Cn1ccc2ccccc21 (stereo unspecified): inactive
10) CC(C)(C)c1ccc(C(=O)Nc2ccc(C(F)(F)F)cc2)s1: inactive
11) CCCCCCCCCCCC(=O)NOC(=O)c1c(-c2c(Cl)cccc2Cl)noc1C: active
12) Cc1c(C(=O)N(Cc2ccccc2)Cc2cccs2)cnn1-c1ccc(Cl)cc1: inactive
13) OC(=Cc1nc2ccccc2nc1C=C(O)c1ccc(Cl)cc1)c1ccc(Cl)cc1: inactive
14) Cc1onc(-c2c(F)cccc2Cl)c1C(=O)NNc1cc(Cl)cc(Cl)c1: inactive
15) COC(=O)c1sccc1-c1ccc(/C=C/[N+](=O)[O-])o1: active
16) O=C(/C=C/Sc1nc2ccccc2s1)c1ccc(Cl)cc1: inactive
17) O=C(Nc1ccc(OC(F)(F)F)cc1)N1CCN(c2nc(-c3ccccc3)ns2)CC1: inactive
18) CC(=O)ON=C1c2cc([N+](=O)[O-])ccc2-c2ccc([N+](=O)[O-])cc21: inactive
19) Cc1ccc(NS(=O)(=O)c2ccc(-c3csc(C)n3)s2)c(C)c1: inactive
20) CCc1ccn2cc(Nc3ccccc3Cl)nc2c1: inactive
21) O=[N+]([O-])c1ccc(Sc2ssc(=S)c2-c2ccccc2)nc1: active
22) FC(F)(F)c1cccc(-n2c(CSCc3cccc4ccccc34)n[nH]c2=S)c1: inactive
23) O=C(Nc1ccc(Cl)cc1)OCCSc1nc2ccccc2s1: inactive
24) Cc1onc(-c2c(Cl)cccc2Cl)c1C(=O)NC(C)(C)CC(C)(C)C: inactive
25) Cc1ccc(NC(=O)c2ccccc2N=Cc2cc(Cl)cc(Cl)c2O)c(N=Cc2cc(Cl)cc(Cl)c2O)c1: active
26) O=C(NNc1ccc(I)cc1)c1cc(Cl)cc(Cl)c1: inactive
